- Test protocol: Tmax in C57BL/6J mouse at 20 mg/kg, po administered as single dose
- Assay type: ADME, organism-based
- Design: dose 20 mg/kg, route oral
- Applied conditions: in vivo
Recorded metric: Tmax (min)

# Smiles entry, Recorded metric, Endpoint value
measured = [
    ("N#Cc1ccc(NCCNCC(=O)N2CCC[C@H]2C#N)nc1", "Tmax", 19.2),
    ("N#C[C@@H]1CCCN1C(=O)CCCNC(=O)c1ccc(C(F)(F)F)cc1", "Tmax", 16.8),
    ("N#Cc1ccc(C(=O)NCCCC(=O)N2CCC[C@H]2C#N)cc1", "Tmax", 17.4),
]

----------
- Test protocol: Elimination rate constant in C57BL/6J mouse at 20 mg/kg administered as single dose
- Assay type: ADME, organism-based
- Set-up: dose 20 mg/kg
- Applied conditions: in vivo
Recorded metric: k el (s⁻¹)

a. N#Cc1ccc(C(=O)NCCCC(=O)N2CCC[C@H]2C#N)cc1
b. N#C[C@@H]1CCCN1C(=O)CCCNC(=O)c1ccc(C(F)(F)F)cc1
q: Select one: a or b . Criterion: greater recorded k el. Selection: enter the item's label.
a: b

----------
- Test protocol: Cmax in C57BL/6J mouse at 20 mg/kg, po administered as single dose
- Assay type: ADME, organism-based
- Parameters: dose 20 mg/kg, route oral
- Applied conditions: in vivo
Recorded metric: Cmax (ng/mL)

# Smiles entry, Cmax (ng/mL)
rows = [
    ("N#Cc1ccc(C(=O)NCCCC(=O)N2CCC[C@H]2C#N)cc1", 7100),
    ("N#Cc1ccc(NCCNCC(=O)N2CCC[C@H]2C#N)nc1", 6200),
    ("N#C[C@@H]1CCCN1C(=O)CCCNC(=O)c1ccc(C(F)(F)F)cc1", 5900),
]

----------
- Test protocol: AUC (0 to alpha) in C57BL/6J mouse at 20 mg/kg, po administered as single dose
- Assay type: ADME, organism-based
- Set-up: dose 20 mg/kg, route oral
- Applied conditions: plasma
Recorded metric: AUC (ng·h/mL)

# Smiles entry, Quantity unit, AUC
data = [
    ("N#Cc1ccc(NCCNCC(=O)N2CCC[C@H]2C#N)nc1", "ng·h/mL", 6490),
]

A. N#C[C@@H]1CCCN1C(=O)CCCNC(=O)c1ccc(C(F)(F)F)cc1
B. N#Cc1ccc(C(=O)NCCCC(=O)N2CCC[C@H]2C#N)cc1
q: Which value of AUC is smaller, the one for A or the one for B ? Selection: enter the item's label.
a: A
